Tested on: RXF 393
ASSAY NOTES: NCI tumour cell line growth inhibition, 48 h
Activity calls are given as the source filed them. No stated cut-off is given here; in the data, active = GI50 up to about 1.1 µM and inactive = higher.
// reported GI50 for each item listed
MEASURED PROPERTY: GI50

- COMPOUND: "COC(=O)C(CC(C)=O)CS(=O)(=O)CC(=O)C(=O)Nc1cccc([N+](=O)[O-])c1 (stereo unspecified)"
  READING: "> 100 µM (inactive)"
- COMPOUND: "COc1cc(C2C(=O)C(Cl)N2Nc2nc(C)cc(O)n2)cc(OC)c1OC (stereo unspecified)"
  READING: "12.3 µM (inactive)"
- COMPOUND: "COCc1nc(N)nc(N2N=C(C)CC2(C)C)n1"
  READING: "> 100 µM (inactive)"
- COMPOUND: "CCOC(=O)c1[nH]c(-c2[nH]c(-c3[nH]c(-c4[nH]c(C(=O)OCC)c(C)c4C(=O)OCC)c(C(=O)OCC)c3C)c(C)c2C(=O)OCC)c(C(=O)OCC)c1C"
  READING: "> 100 µM (inactive)"
- COMPOUND: "CN(C)c1ccc(/C=C2\\C[N+](C)(C)C/C(=C\\c3ccc(N(C)C)cc3)C2=O)cc1"
  READING: "> 48.2 µM (inactive)"
- COMPOUND: "C(=N/Nc1ccccn1)/c1cccnc1"
  READING: "> 100 µM (inactive)"
- COMPOUND: "CCOC(=O)NC(=O)c1cn(CCN2CCN(C(=O)NCCCCCCNC(=O)N3CCN(CCn4cc(C(=O)NC(=O)OCC)c(=O)[nH]c4=O)CC3)CC2)c(=O)[nH]c1=O"
  READING: "> 100 µM (inactive)"
- COMPOUND: "Cc1ccc(C)c(N2C(=O)C(=O)C(c3nc4ccccc4o3)/C(=N/N)C2=O)c1 (stereo unspecified)"
  READING: "> 100 µM (inactive)"
- COMPOUND: "CC(=C(C(=O)O)C(=O)O)c1cc(-c2cccs2)cc(-c2ccc(Cl)cc2)c1O"
  READING: "14 µM (inactive)"
- COMPOUND: "CC(C)(C)NCC(O)c1ccc(O)c(CO)n1 (stereo unspecified)"
  READING: "> 100 µM (inactive)"
- COMPOUND: "COC(=O)C1CC2C=CC1N(C(=O)OCc1ccccc1)C2 (stereo unspecified)"
  READING: "> 100 µM (inactive)"
- COMPOUND: "C=CCN(N=O)C(=O)NCCCC(NC(C)=O)C(=O)NCc1ccccc1 (stereo unspecified)"
  READING: "> 100 µM (inactive)"
- COMPOUND: "C/C(CC(=O)Nc1cccc([N+](=O)[O-])c1)=N/NC(N)=S"
  READING: "> 100 µM (inactive)"
- COMPOUND: "CCOC1NC(=O)Oc2cc3ccccc3cc21 (stereo unspecified)"
  READING: "> 100 µM (inactive)"
- COMPOUND: "NC(=O)C(=CNC(N)=S)C(N)=O"
  READING: "> 100 µM (inactive)"
- COMPOUND: "COC(=O)C(CCCC1(c2ccccc2)OCCO1)C(C)=O (stereo unspecified)"
  READING: "> 100 µM (inactive)"
- COMPOUND: "N#Cc1c(-c2cccc(Br)c2)cc(-c2ccc(Cl)cc2)nc1N"
  READING: "15.8 µM (inactive)"
- COMPOUND: "O=C1OC(CC(=O)c2ccccc2Cl)C(Cl)=C1Cl (stereo unspecified)"
  READING: "> 100 µM (inactive)"
- COMPOUND: "CCOC(CCNCC(OCC)OCC)OCC"
  READING: "> 10 µM (inactive)"
- COMPOUND: "O=C1C2=C(C(=O)c3c(O)ccc(O)c31)[C@@H](O)[C@@H](O)[C@@H](O)C2"
  READING: "1.85 µM (inactive)"
- COMPOUND: "COc1ccccc1C(=O)NCC1CCCN2CCCCC12 (stereo unspecified)"
  READING: "> 100 µM (inactive)"

Data provenance is ChEMBL document CHEMBL1201862.
